All values here come from paper PMC9926453.

- Test system: MDA-MB-231/ADR breast cancer cells
- EXPERIMENT: MTT antiproliferative assay, MDA-MB-231/ADR
- Assay type: cell-based
- STATED_CONDITIONS: Homo sapiens, MDA-MB-231, 24 h, read-out: Antiproliferative activity (IC50) MDA-MB-231/ADR
READOUT_LABEL: pIC50
Formally, pIC50 is defined as -log10 of the concentration c, with c in mol/L.

Enquiry: Requested field: pIC50. Item: C[C@@H]1CC[C@H]2[C@@H](C)C(OC(=O)CCCN3C(=O)C(=NOCc4ccccc4)c4ccccc43)O[C@@H]3O[C@@]4(C)CC[C@@H]1[C@]32OO4 (stereo partly drawn)
Return: 5.40

Enquiry: C[C@@H]1CC[C@H]2[C@@H](C)C(OC(=O)CCCN3C(=O)C(=O)c4ccccc43)O[C@@H]3O[C@@]4(C)CC[C@@H]1[C@]32OO4 (stereo partly drawn) ?
Return: 4.30

Now, please, on to the next compound.
Enquiry: Requested field: pIC50. Item: CON=C1C(=O)N(CCCC(=O)OC2O[C@@H]3O[C@@]4(C)CC[C@H]5[C@H](C)CC[C@@H]([C@H]2C)[C@@]35OO4)c2ccccc21 (stereo partly drawn)
Return: 4.28
